assay: Antioxidant activity against H2O2-induced oxidative stress in chicken RBC assessed as superoxide dismutase activity by measuring pyrogallol oxidization per mg protein pre-incubated at 100 uM followed by H2O2 addition by UV spectroscopy (reference value: 11.32 +/- 1.96 pyrogallol oxidized/min/mg of protein); type: functional, Gallus gallus, Erythrocyte
Parameter Activity: see the listing below.
reported-property: Activity (µmol/min)

COc1cc2c(cc1OC)C1(O)c3ccccc3C(=O)N1CC2 (stereo not given)
28.45
COc1ccc(OC)c2c1CCN1C(=O)c3ccccc3C21O (stereo not given)
27.76
COc1ccc2c(c1)CCN1C(=O)c3ccccc3C21O (stereo not given)
11.37
COc1cc2c(c(OC)c1)C1CCC(=O)N1CC2 (stereo not given)
29.34
COc1cc2c(cc1OC)C1(O)C3C4c5ccccc5C(c5ccccc54)C3C(=O)N1CC2 (stereo not given)
27.87
Cc1ccc2c(c1)CCN1C(=O)c3ccccc3C21O (stereo not given)
18.6
O=C1c2ccccc2C2(O)c3ccc(Br)cc3CCN12 (stereo not given)
21.58
COc1cc2c(cc1O)C1(O)c3ccccc3C(=O)N1CC2 (stereo not given)
30.94
COc1ccc2c(c1OC)CCN1C(=O)c3ccccc3C21O (stereo not given)
18.13
COc1ccc2c(c1OC)CCN1C(=O)CCCC21 (stereo not given)
12.98
